Biological target: equine FcRn (large alpha subunit p51) / equine beta-2-microglobulin complex, biotinylated (equine) (UniProt P30441)
Test: SPR (Biacore), pH 6
Measured property: Kd (nM)
Entry rule: numbers only, all in nM.

Respond only with Kd recorded for equine IgG4 K311C (antibody, part only; not given: variable domains, not shown: another chain or arm of the molecule; small tags and cut ends) constant: ASTTAPKVFPLASHSAATSGSTVALGCLVSSYFPEPVTVSWNSGALTSGVHTFPSVLQSSGLYSLSSMVTVPASSLKSQTYICNVAHPASSTKVDKKIVIKECNGGCPAECLQVGPSVFIFPPKPKDVLMISRTPTVTCVVVDVGHDFPDVQFNWYVDGVETHTATTEPKQEQFNSTYRVVSVLPIQHCDWLSGKEFKCKVNNKALPAPVERTISKPTGQPREPQVYVLAPHRDELSKNKVSVTCLVKDFYPTDIDIEWKSNGQPEPETKYSTTPAQLDSDGSYFLYSKLTVETNRWQQGTTFTCAVMHEALHNHYTEKSVSKSPGK
23.5

Every entry's value here was drawn from patent US20260070987A1.
